# System: K562 (leukemia) cells
# assayInfo: MTT cytotoxicity assay, K562
# Format: cell-based, human
# measurementContext: Homo sapiens, K562, 48 h, 48 h incubation with cells, MTT

| compound | systemTested | IC50 |
| --- | --- | --- |
| COc1cc2c(C)c(Br)oc2c(C(=O)CBr)c1OC | K562 (leukemia) cells | < 50 µM |
| COC(=O)c1c(C)oc2cc(C(O)C(Br)Br)c(OC)cc12 (stereo not shown) | K562 (leukemia) cells | 85 µM |
| COC(=O)c1oc2c(C(C)=O)c(OC)c(OC)cc2c1CBr | K562 (leukemia) cells | < 50 µM |
| COC(=O)c1c(CBr)oc2cc(C(C)=O)c(OC)cc12 | K562 (leukemia) cells | < 50 µM |
